target: control isotype anti-KLH IgM Ab (C48-6; BD Bioscience-Pharmingen); test: phage ELISA, coated control IgM
Bridges are numbered along the chain shown (N, C = ends). Where no end group is shown, it is not given here.
In this section we review reported OD (binding of phages to control IgM) values for a set of binders.
MEASURED QUANTITY: OD (binding of phages to control IgM) (OD)

BINDER	MEASURED NUMBER
ACQNSHMPLCGGGS (peptide, not shown: large carriers, disulfide 2-10; also: C-terminus fused to phage pIII) [phage clone Ca3]	0.1
ACNNSXMPLCGGGS (peptide, not shown: large carriers, disulfide 2-10; not fully specified; X: residue not identified in the source) [phage clone Ca6]	0
HRISNYAMELHSGGGS (peptide, not shown: large carriers) [phage clone G4]	0.04
HSLSNIQMATLAGGGS (peptide, not shown: large carriers) [phage clones M10, G8]	0.03
ACNNSKMRLCGGGS (peptide, not shown: large carriers, disulfide 2-10; also: C-terminus fused to phage pIII) [phage clone Ca2]	0.2
QSYTNDDVLRISGGGS (peptide, not shown: large carriers) [phage clone M19]	0.03
ACNNSNMPLCGGGS (peptide, not shown: large carriers, disulfide 2-10; also: C-terminus fused to phage pIII) [phage clone Cb10]	0.2
ACNNQNMPLCGGGS (peptide, not shown: large carriers, disulfide 2-10; also: C-terminus fused to phage pIII) [phage clone Cb9]	0.01
QNMNNWTLASIMGGGS (peptide, not shown: large carriers) [phage clone A31]	0.08
HRLTNSEQAALPGGGS (peptide, not shown: large carriers) [phage clones M3, M5]	0.03
DYTNSVSMRYLSGGGS (peptide, not shown: large carriers) [phage clone M36]	0.01
ACDWAPHFTCGGGS (peptide, not shown: large carriers, disulfide 2-10; also: C-terminus fused to phage pIII) [phage clone Cb2]	0.2
HQLSNKDEQTPQGGGS (peptide, not shown: large carriers) [phage clone A33]	0.05
